Answer each item with its documented log10(solubility kinetic).
Scale: decimal log of solubility kinetic, solubility kinetic in µM.

Compound: CC(C)[C@H](Nc1ncnc2[nH]cc(C(N)=O)c12)c1ccc2c(c1)OCCO2 (racemic)
log10(solubility kinetic): 2.57

Value sought for every listed compound: log10(solubility kinetic).
1. O=C(Nc1cc(Br)c2c(c1)CNC2)c1cc(F)cc2[nH]ncc12
2. CC(C)[C@H](Nc1ncnc2[nH]c(-c3cnn(C)c3C#N)cc12)c1ccc2c(c1)OCCO2 (racemic)
3. COc1ccc([C@H](Cc2nnn[nH]2)NC(=O)c2ncnc3[nH]ccc23)cc1 (single isomer, unassigned)

Response:
1: 0.60; 2: 1.23; 3: 2.56

###

Details: mdck_mdr1
Measured attribute: Papp (×10⁻⁶ cm/s)
One number for each entry, in ×10⁻⁶ cm/s.

// solved cases for Papp follow
Molecule: O=C(Nc1cc(Cl)cc(-c2ccc3[nH]c(C(=O)O)cc3c2)c1)OCc1ccccc1
Readout value: 0.61
//
Molecule: NCc1cccc(NC(=O)[C@H](NC(=O)OCc2ccccc2)C(C2CCC2)C2CCC2)c1 (racemic)
Readout value: 1.6
//
Molecule: Nc1nc(-c2ccccc2)nc2[nH]nc(Nc3ccc(C(F)(F)F)cc3)c12
Readout value: 1.76
//
Molecule: O=C(Nc1ccc2c(c1)CNC2)c1cc(Cl)cc2c1CCC2
Readout value: 2.57

Next, consider the following molecule.
Prompt: Recorded Papp for COCc1cc(Cl)cc([C@H](Nc2ccc3c(c2)CNC3)C(=O)NCC(F)F)c1 (racemic) , please?
Response: 1.7

###

Conditions: mdck_mdr1
Answer each item with its documented Papp.
Numbers only, in ×10⁻⁶ cm/s.

Molecule: NCc1cccc(NC(=O)[C@@H](NC(=O)OCc2ccccc2)c2ccc(OCc3ccccc3)cc2)c1
Unit of measurement: ×10⁻⁶ cm/s
Readout value: 1.53

Molecule: CNC(=O)c1cc2c(N[C@H](c3ccc4c(c3)NC(=O)CO4)C(C)C)ncnc2[nH]1 (racemic)
Unit of measurement: ×10⁻⁶ cm/s
Readout value: 0.873

Molecule: CC(C)[C@H](Nc1ncnc2[nH]c(-c3cnn(CCC(N)=O)c3)cc12)c1ccc2c(c1)OCCO2 (racemic)
Unit of measurement: ×10⁻⁶ cm/s
Readout value: 1.46

Molecule: O=C(O)c1cc(Cl)c(F)cc1S(=O)(=O)Nc1ccc(Oc2ccccc2Cl)cc1
Unit of measurement: ×10⁻⁶ cm/s
Readout value: 4.29

Molecule: O=C(Nc1ccc2c(c1)CNC2)c1cc(Cl)cc2[nH]ncc12
Unit of measurement: ×10⁻⁶ cm/s
Readout value: 1.8

Molecule: N#C[C@H](Nc1ccc2c(c1)CNC2)c1cc(Cl)cc2[nH]ncc12 (racemic)
Unit of measurement: ×10⁻⁶ cm/s
Readout value: 1.1

Molecule: CC(C)NC(=O)[C@H](Nc1ccc2c(c1)CNC2)c1cc(Cl)cc2[nH]c(-c3ccccc3)nc12 (single isomer, unassigned)
Unit of measurement: ×10⁻⁶ cm/s
Readout value: 0.2

Molecule: NCc1cccc(NC(=O)C[C@H](NC(=O)OCc2ccccc2)c2ccc(OCc3ccccc3)c(Br)c2)c1 (racemic)
Unit of measurement: ×10⁻⁶ cm/s
Readout value: 0.783

Molecule: O=C(Nc1ccccc1)Nc1ccc(C(=O)NC2c3cccc(O)c3CC2C(=O)O)cc1 (configuration not stated)
Unit of measurement: ×10⁻⁶ cm/s
Readout value: 0.7

Molecule: CNC(=O)c1cc2c(N[C@H](c3ccc4c(c3)S(=O)(=O)CCC4)C(C)C)ncnc2[nH]1 (racemic)
Unit of measurement: ×10⁻⁶ cm/s
Readout value: 0.46

Value sought for every listed molecule: Papp.
1. O=C(N[C@H]1[C@H]2CCCCC[C@H]2[C@H]1C(=O)Nc1cccc(C2CCNCC2)c1)OCc1ccccc1 (racemic)
2. COc1ccc(C(=O)Nc2cccc(/C=C3/C(=O)NC(=O)c4ccccc43)c2)cc1
3. CCNC(=O)c1cc2c(N[C@H](c3ccc4c(c3)S(=O)(=O)CCC4)C(C)C)ncnc2[nH]1 (racemic)
4. COCCNC(=O)[C@H](Nc1ccc2c(c1)CNC2)c1cc(Cl)cc(C2CC2)c1 (single isomer, unassigned)
5. Cc1cc(CCCOc2c(C)cc(-c3noc(C(F)(F)F)n3)cc2C)on1
6. N#C[C@H](Nc1cccc(C(=O)O)c1)c1cc(Cl)cc2[nH]ncc12 (racemic)

Response:
[0.395, 2.33, 0.7, 1.4, 1.42, 1.22]

Prompt: Recorded Papp for N#CCCNC(=O)[C@H](Nc1ccc2c(c1)CNC2)c1cc(Cl)cc(C2CC2)c1 (racemic) , please?
Response: 0.5
